Test System: T1, Aβ42 (t=24 days) (human, UniProt P05067 672-713)
T1 construct: domain: Aβ42 (residues 1-42 of the Aβ peptide); enriched in high-MW oligomers by CE; also called Aβ42 high-MW oligomers
T1 sequence (P05067 672-713 limits assumed): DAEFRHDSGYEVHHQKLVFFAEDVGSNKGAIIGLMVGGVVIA
Method: SPRi, Aβ spotted on chip at 20 µM, LL-37 injected 1-100 µM, nonlinear fit of response at equilibrium
Observed Property: Kd

Could you please provide reported Kd for LLGDFFRKSKEKIGKEFKRIVQRIKDFLRNLVPRTES (peptide, UniProt P49913 134-170, looked up, range 134-170; Synthetic peptide; from Innovagen for SPRi/TEM/CD, from AnaSpec for the cell culture work; also called cathelicidin LL-37) [human cathelicidin peptide LL-37] ? Thanks!
20.3 µM
